All values here come from patent US11702404B2.

Measured log10 EC50 of individual entries
target: GLP-1R (Homo sapiens, UniProt P43220); assay: GLP-1R activation: cAMP increase in CHO cells stably expressing GLP-1R; type: cell-based; details: cAMP increase, CHO cells stably expressing GLP-1R, 10 point dose response, 30 minutes incubation; read-out: EC50
Sequence (P43220 24-463): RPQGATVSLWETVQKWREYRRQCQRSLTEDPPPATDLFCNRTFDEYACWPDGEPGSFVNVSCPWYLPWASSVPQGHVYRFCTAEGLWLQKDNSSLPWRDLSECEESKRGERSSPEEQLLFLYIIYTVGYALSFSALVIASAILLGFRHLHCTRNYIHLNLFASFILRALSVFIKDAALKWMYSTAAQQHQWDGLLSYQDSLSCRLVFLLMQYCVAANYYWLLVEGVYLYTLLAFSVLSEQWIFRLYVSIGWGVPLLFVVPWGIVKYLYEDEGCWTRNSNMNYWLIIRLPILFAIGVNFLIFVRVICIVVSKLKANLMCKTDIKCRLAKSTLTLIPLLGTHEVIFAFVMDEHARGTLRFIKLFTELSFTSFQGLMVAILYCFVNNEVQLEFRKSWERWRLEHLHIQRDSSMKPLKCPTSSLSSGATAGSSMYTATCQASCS
measurementKind: log10 EC50 (log10 of the value in nM)

# compound, reportedResult
measured = [
    ("O=C(O)c1ccc2nc(Cc3cc(F)c(-c4cccc(OCc5ccc(C(F)F)cc5F)n4)cc3F)n(CC34CC(CO3)C4)c2c1 [Example 670]", -0.29),
    ("COCCn1c(Cc2c(F)cc(-c3cccc(OCc4ccc(C(F)F)cc4F)n3)c(F)c2F)nc2ccc(C(=O)O)cc21 [Example 750]", 0.10),
    ("COCCn1c(Cc2ccc(-c3cccc(OCc4ccc(C#N)cc4F)n3)c(Br)c2)nc2ccc(C(=O)O)cc21 [Example 261]", 2.26),
    ("N#Cc1ccc(COc2nccc(-c3cc(F)c(Cc4nc5ccc(C(=O)O)cc5n4CCOC4CC4)cc3F)n2)c(F)c1 [Example 897]", 0.61),
    ("Cc1nnc(Cn2c(Cc3cc(F)c(-c4cccc(OCc5ccc(C#N)cc5F)n4)cc3F)nc3ccc(C(=O)O)cc32)o1 [Example 748]", 3.12),
    ("COc1cc(C#N)ccc1COc1cccc(-c2cc(F)c(Cc3nc4ccc(C(=O)O)cc4n3CC3(CC#N)CC3)cc2F)n1 [Example 427]", -1.22),
    ("N#Cc1ccc(COc2nccc(-c3ccc(Cc4nc5ccc(C(=O)O)cc5n4CC45CC(CO4)C5)cc3F)n2)c(F)c1 [Example 626]", 1.38),
    ("N#Cc1ccc(COc2cccc(-c3ccc(Cc4nc5c(F)cc(C(=O)O)cc5n4Cc4ncco4)c(F)c3)n2)c(F)c1 [Example 625]", -0.20),
    ("N#Cc1ccc(COc2cccc(-c3cc(F)c(Cc4nc5cc(F)c(C(=O)O)cc5n4C[C@@H]4CCO4)cc3F)n2)c(F)c1 [Example 219]", -0.16),
    ("N#Cc1ccc(COc2cccc(-c3cc(F)c(Cc4nc5ccc(C(=O)O)c(F)c5n4C[C@@H]4CCO4)cc3F)n2)c(F)c1 [Example 632]", -0.62),
    ("N#Cc1ccc(COc2cccc(-c3ccc(Cc4nc5c(F)cc(C(=O)O)cc5n4CC(O)CCO)c(F)c3)n2)c(F)c1 (stereo not drawn) [Example 468]", 1.43),
    ("N#Cc1ccc(COc2cccc(-c3ccc(Cc4nc5ccc(C(=O)O)cc5n4C[C@@H]4CCO4)cc3F)n2)cn1 [Example 656]", 0.18),
    ("COC1(Cn2c(Cc3cc(F)c(-c4cccc(OCc5ccc(C#N)cc5F)n4)cc3F)nc3ccc(C(=O)O)cc32)COC1 [Example 636]", 0.10),
    ("COCCn1c(Cc2c(F)cc(-c3cccnc3OCc3ccc(Cl)cc3F)cc2F)nc2ccc(C(=O)O)cc21 [Example 174]", 1.52),
    ("CNC(=O)C(Cn1c(Cc2ccc(-c3cccc(OCc4ccc(C#N)cc4F)n3)cc2F)nc2ccc(C(=O)O)cc21)OC (single isomer, unassigned) [Example 336]", 0.69),
    ("COCCn1c(Cc2ccc(-c3cccc(OCc4cccc(OC(F)F)c4)n3)cc2F)nc2ccc(C(=O)O)cc21 [Example 505]", 1.61),
    ("O=C(O)c1cc(F)c2nc(Cc3ccc(-c4cccc(OCc5ccc(C(F)F)cc5F)n4)cc3F)n(C[C@@H]3CCO3)c2c1 [Example 648]", -1.05),
    ("COCCn1c(Cc2cc(F)c(-c3cccc(OCc4ccc(-c5cnccn5)cc4F)n3)cc2F)nc2ccc(C(=O)O)cc21 [Example 916]", 0.34),
    ("COCCn1c(Cc2ccc(-c3cccc(OCc4ccc(C#N)cc4F)n3)cc2F)nc2ccc(P(=O)(O)O)cc21 [Example 555]", 1.76),
    ("N#Cc1ccc(COc2cccc(-c3ccc(Cc4nc5ccc(C(=O)O)cc5n4C[C@@H]4CCO4)cc3F)n2)c(F)c1 [Example 523]", -0.29),
    ("N#CCC1(Cn2c(Cc3ccc(-c4cccc(OCc5ccc(C#N)cc5F)n4)cc3C#N)nc3ccc(C(=O)O)cc32)CC1 [Example 388]", -0.62),
    ("COCCn1c(Cc2ccc(-c3cccc(OCc4ccc(C#N)cc4F)n3)cc2OC)nc2ccc(C(=O)O)cc21 [Example 33]", 1.43),
    ("O=C(O)c1ccc2nc(Cc3cc(F)c(-c4ccnc(OCc5ccc(Cl)cc5F)n4)cc3F)n(CC3(CF)CC3)c2c1 [Example 433]", -0.19),
    ("N#CCC1(Cn2c(Cc3cc(F)c(-c4ccnc(OCc5ccc(Cl)cc5F)n4)cc3F)nc3ccc(C(=O)O)cc32)CC1 [Example 442]", -0.85),
    ("N#Cc1ccc(COc2cccc(-c3cc(F)c(Cc4nc5c(F)cc(C(=O)O)cc5n4C[C@@H]4CCCO4)cc3F)n2)c(F)c1 [Example 831]", -0.62),
    ("N#Cc1ccc(COc2cccc(-c3ccc(Cc4nc5ncc(C(=O)O)cc5n4CC4(CF)CC4)c(F)c3)n2)c(F)c1 [Example 94]", -0.18),
    ("COC(Cn1c(Cc2ccc(-c3cccc(OCc4ccc(C#N)cc4F)n3)cc2F)nc2ccc(C(=O)O)cc21)C(=O)O (single isomer, unassigned) [Example 333]", 2.80),
]

* * *

Measured pEC50 of individual entries
biological target: GLP-1R (Homo sapiens, UniProt P43220); test: GLP-1R activation: cAMP increase in CHO cells stably expressing GLP-1R; type: cell-based; details: cAMP increase, CHO cells stably expressing GLP-1R, 10 point dose response, 30 minutes incubation; read-out: EC50
pEC50: −log10 of the molar value.
measurementKind: pEC50

# compoundSmiles, testedSystem, reportedResult
rows = [
    ("COCCn1c(Cc2ccc(-c3cccc(OCc4ccc(C#N)cc4F)n3)cc2F)nc2ccc(C(=O)O)cc21", "GLP-1R (Homo sapiens, UniProt P43220)", 8.64),
    ("O=C(O)c1ccc2nc(Cc3cc(F)c(-c4ccnc(OCc5ccc(C(F)(F)F)cc5F)n4)cc3F)n(C[C@@H]3CCO3)c2c1", "GLP-1R (Homo sapiens, UniProt P43220)", 10.30),
    ("COCCn1c(Cc2cc(F)c(-c3cccc(OCc4ccc(-c5cc[nH]c(=O)c5)cc4F)n3)cc2F)nc2ccc(C(=O)O)cc21", "GLP-1R (Homo sapiens, UniProt P43220)", 7.82),
    ("COCCn1c(Cc2cc(F)c(-c3cccc(OCc4cccc(-c5ccccn5)c4)n3)cc2F)nc2ccc(C(=O)O)cc21", "GLP-1R (Homo sapiens, UniProt P43220)", 8.18),
]

* * *

Measured EC50 of individual entries
target: GLP-1R (Homo sapiens, UniProt P43220); assay: GLP-1R activation: cAMP increase in CHO cells stably expressing GLP-1R; assay type: cell-based; conditions: cAMP increase, CHO cells stably expressing GLP-1R, 10 point dose response, 30 minutes incubation; read-out: EC50
measurementKind: EC50

# compound, testedSystem, reportedResult
records = [
    ("O=C(O)c1cc(F)c2nc(Cc3cc(F)c(-c4nc(OCc5ccc(C(F)(F)F)cc5F)ncc4F)cc3F)n(C[C@@H]3CCO3)c2c1 [Example 884]", "GLP-1R (Homo sapiens, UniProt P43220)", "0.19 nM"),
    ("COCCn1c(Cc2ccc(-c3cccc(OCc4ccccc4NS(C)(=O)=O)n3)cc2F)nc2ccc(C(=O)O)cc21 [Example 516]", "GLP-1R (Homo sapiens, UniProt P43220)", "2460 nM"),
    ("O=C(O)c1ccc2nc(Cc3cc(F)c(-c4cccc(OCc5ccc(Cl)cc5F)n4)cc3F)n(CC3(CF)CC3)c2c1 [Example 432]", "GLP-1R (Homo sapiens, UniProt P43220)", "2.01 nM"),
    ("N#Cc1cc(F)c(COc2nccc(-c3cc(F)c(Cc4nc5ccc(C(=O)O)cc5n4C[C@@H]4CCO4)cc3F)n2)cc1F [Example 786]", "GLP-1R (Homo sapiens, UniProt P43220)", "0.22 nM"),
    ("N#Cc1ccc(COc2nc(-c3ccc(Cc4nc5c(F)cc(C(=O)O)cc5n4C[C@@H]4CCO4)cc3)ccc2F)c(F)c1 [Example 675]", "GLP-1R (Homo sapiens, UniProt P43220)", "0.16 nM"),
    ("COCCn1c(Cc2ccc(-c3cccc(OCc4ccc(C#N)c(F)c4OC)n3)cc2F)nc2ccc(C(=O)O)cc21 [Example 363]", "GLP-1R (Homo sapiens, UniProt P43220)", "8.96 nM"),
    ("COCCn1c(Cc2cc(F)c(-c3nc(OCc4ccc(C(F)F)cc4F)ccc3F)cc2F)nc2ccc(C(=O)O)cc21 [Example 661]", "GLP-1R (Homo sapiens, UniProt P43220)", "1.95 nM"),
    ("COCCn1c(Cc2ccc(-c3cccc(OCc4ccc(C#N)cc4F)n3)cc2F)nc2ncc(C(=O)O)cc21 [Example 71]", "GLP-1R (Homo sapiens, UniProt P43220)", "1.34 nM"),
    ("COCCn1c(Cc2cc(F)c(-c3cccc(OCc4cccc5c4COC5)n3)cc2F)nc2ccc(C(=O)O)cc21 [Example 873]", "GLP-1R (Homo sapiens, UniProt P43220)", "83.8 nM"),
    ("COCCn1c(Cc2ccc(-c3cccc(OCC(=O)c4ccc(Cl)cc4)n3)cc2F)nc2ccc(C(=O)O)cc21 [Example 212]", "GLP-1R (Homo sapiens, UniProt P43220)", "80.1 nM"),
    ("COCCn1c(Cc2cc(F)c(-c3ccc(F)c(OCc4ccc(C#N)cc4F)n3)cc2C)nc2ccc(C(=O)O)cc21 [Example 673]", "GLP-1R (Homo sapiens, UniProt P43220)", "3.54 nM"),
    ("COCC1(Cn2c(Cc3cc(F)c(-c4cccc(OCc5ccc(C#N)cc5F)n4)cc3F)nc3ccc(C(=O)O)cc32)CCC1 [Example 743]", "GLP-1R (Homo sapiens, UniProt P43220)", "2.48 nM"),
    ("N#Cc1ccc(COc2cccc(-c3ccc(Cc4nc5ccc(C(=O)O)cc5n4C4CCC4)c(F)c3)n2)c(F)c1 [Example 223]", "GLP-1R (Homo sapiens, UniProt P43220)", "16.4 nM"),
    ("N#Cc1ccc(COc2nccc(-c3cc(F)c(Cc4nc5c(F)cc(C(=O)O)cc5n4CC4(CF)CC4)cc3F)n2)c(F)c1 [Example 412]", "GLP-1R (Homo sapiens, UniProt P43220)", "0.33 nM"),
]
